Assay: Cytotoxicity against murine macrophage cells
Details: mouse, J774 macrophage cells

test-smiles: COc1ccc2[nH]c3cc(OC)c(C=O)cc3c2c1
CC50: > 40 µg/mL
--
test-smiles: COc1ccc2c(c1)c1cc(C=O)c(OC)cc1n2C
CC50: > 40 µg/mL

###

System: L. donovani promastigotes
Assay: L. donovani promastigote viability, 72 hour Alamar blue assay
Type: cell-based, Leishmania donovani
Conditions: 72 hour Alamar blue, 26°C
Kind request: treat 7 µg/mL as inclusive, so L. donovani Promastigotes IC50 at 7 µg/mL or higher is label 1, anything lower is label 0.

compound: O=Cc1cc2c(cc1O)[nH]c1ccc(OC(F)(F)F)cc12 [Compound 6d]
group: label 0
--
compound: COc1ccc2[nH]c3ccc(C=O)cc3c2c1 [Compound 5g]
group: label 1
--
compound: CCn1c2ccccc2c2cc(C=O)ccc21 [Compound 14]
group: label 1
--
compound: O=Cc1cc2c(cc1O)[nH]c1ccc(C(F)(F)F)cc12 [Compound 6c]
group: label 1
--
compound: Oc1ccc2c(c1)[nH]c1ccccc12 [Compound 15]
group: label 1

###

Test system: L. donovani promastigotes
Experiment: L. donovani promastigote viability, 72 hour Alamar blue assay
Type: cell-based, Leishmania donovani
Settings: 72 hour Alamar blue, 26°C
Each item that follows carries a reported L. donovani Promastigotes IC50.
experimental-readout: L. donovani Promastigotes IC50 (µg/mL)

test-smiles: Cn1c2ccccc2c2ccccc21
units: µg/mL
val: 37.0

test-smiles: O=Cc1cc2c(cc1O)[nH]c1ccccc12
units: µg/mL
val: 35.4

test-smiles: COc1ccc2[nH]c3cc(O)c(C)cc3c2c1
units: µg/mL
val: 17.7

###

Tested on: LU-1 human lung carcinoma cell line
Assay: Sulforhodamine
Type: cell-based
Conditions: LU-1 human lung carcinoma, SRB
Kind request: treat 40 µg/mL as inclusive, so Cytotoxicity LU-1 CC50 at 40 µg/mL or higher is 1, anything lower is -1.

test-smiles: CCn1c2ccccc2c2cc(C=O)ccc21
group: -1
//
test-smiles: COc1ccc2[nH]c3cc(O)c(CO)cc3c2c1
group: 1
//
test-smiles: COc1ccc2[nH]c3cc(O)c(C)cc3c2c1
group: -1
//
test-smiles: O=Cc1cc2c(cc1O)[nH]c1ccccc12
group: 1
//
test-smiles: O=Cc1cc2c(cc1O)[nH]c1ccc(OC(F)(F)F)cc12
group: 1
//
test-smiles: O=Cc1cc2c(cc1O)[nH]c1ccc(C(F)(F)F)cc12
group: -1

###

System: J-774 murine macrophages
Experiment: Cytotoxicity against murine macrophage cells
Details: read-out: Cytotoxicity J-774 murine macrophages CC50; J-774, Alamar blue
Please use true for CC50 under 90 µM and false for everything else, ties included.

compound: O=Cc1cc2c(cc1O)[nH]c1ccc(OC(F)(F)F)cc12 [Compound 6d]
group: true

compound: CCn1c2ccccc2c2cc(C=O)ccc21 [Compound 14]
group: false

compound: O=Cc1cc2c(cc1O)[nH]c1ccc([N+](=O)[O-])cc12 [Compound 6f]
group: true

compound: O=Cc1cc2c(cc1O)[nH]c1ccccc12 [Compound 6b]
group: false

compound: O=Cc1cc2c(cc1O)[nH]c1ccc(C(F)(F)F)cc12 [Compound 6c]
group: true

###

Tested on: LU-1 human lung carcinoma cell line
Assay: Sulforhodamine
Type: cell-based
Conditions: LU-1 human lung carcinoma, SRB

test-smiles: Oc1ccc2c(c1)[nH]c1ccccc12
Cytotoxicity LU-1 CC50: 40 µg/mL

The measured values listed here are drawn from paper PMC3565020.
